System: TK-10
test_description: NCI tumour cell line growth inhibition, 48 h
Calls of active or inactive are those of the source. No stated cut-off is given here; in the data, active = GI50 up to about 1.1 µM and inactive = higher.
Kindly state GI50 for each of the entries shown.

I have this molecule here, CC(=O)NC(CCCCN)C(=O)NCc1ccccc1 (stereo unspecified) , and I need its recorded GI50. > 100 µM (inactive)

Follow-up item: CC(C)=CCCC(C)C1=C(O)C(=O)C(C)=CC1=O (stereo unspecified) 7.73 µM (inactive)

Follow-up item: `C=CCN(CCNS(=O)(=O)c1ccc(C)cc1)S(=O)(=O)c1ccc(C)cc1` > 55.2 µM (inactive)

Follow-up item: `O=C(CCc1ccccc1)On1c(-c2ccccc2)nc2ccccc2c1=S` 18.9 µM (inactive)

Follow-up item: COC(=O)C(Cc1ccc(Oc2cc(CC(NC(=O)c3ccccc3)C(=O)OC)ccc2OC)cc1)NC(=O)c1ccccc1 (stereo unspecified) 7.53 µM (inactive)

Follow-up item: `COC(=O)C1=C(C(=O)OC)SC2(S1)C(C(=O)OC)=C(C(=O)OC)Sc1c2ssc1=O` 1.58 µM (inactive)

Follow-up item: `Cn1c(=O)c2nc(N3CCOCC3)cnc2n(C)c1=O` > 100 µM (inactive)

Follow-up item: `CNc1ccc(Cl)cc1S(=O)(=O)c1ccccc1[N+](=O)[O-]` > 100 µM (inactive)

Follow-up item: Nc1ncnc2c1N=C(c1ccccc1)CC(c1ccccc1)N2 (stereo unspecified) > 100 µM (inactive)

Follow-up item: `COc1cc(/C=C(\C#N)c2ccccn2)cc(Br)c1O` > 100 µM (inactive)

Follow-up item: Cc1ccc([N+](=O)[O-])cc1NC(=O)/C(=N/NC(=S)NN)C1SC(=S)NC1=O (stereo unspecified) > 100 µM (inactive)
